Test system: H358 cells
Run Description: Antiproliferative activity against H358 cells (Cell Titer Glow, ultra-low attachment plate)
Assay type: cell-based
Condition Details: Homo sapiens, NCI-H358, 72 h, three days after addition of compound
Method: 2500 H358 cells were seeded in a 96-well ultra-low attachment plate (corning, 7007). After one day of growth, a serially diluted compound (a maximum concentration of 5 μM, 5-fold dilution, a total of five doses) was added. Three days after the addition of the compound, Cell Titer Glow (Promega, G9681) was added to evaluate pellet growth, and the IC50 value was calculated.
pIC50: −log10 of the molar value.
Recorded Endpoint: pIC50

INSERT INTO results (smiles_data, result) VALUES
  ('C=CC(=O)N1CC2(CCN(c3nc(N4CC5(CC5)C4)nc4c(OCC(F)(F)F)c(-c5c(C)ccc6[nH]ncc56)c(C5CC5)cc34)CC2)C1', '6.00 to 6.52'),
  ('C=CC(=O)N1CC2(CCN(c3nc(N4CC(CN5CCC5)C4)nc4c(OCC(F)(F)F)c(-c5c(C)ccc6[nH]ncc56)c(C5CC5)cc34)CC2)C1', '> 6.52'),
  ('C=CC(=O)N1CC2(CCN(c3nc(N4CC(N5CC6(CC6)C5)C4)nc4c(OCC(F)(F)F)c(-c5c(F)ccc6[nH]ncc56)c(C5CC5)cc34)CC2)C1', '> 6.52'),
  ('C=CC(=O)N1CC2(CCN(c3nc(N4CC(C)(N5CCCC5)C4)nc4c(OCC(F)(F)F)c(-c5c(C)ccc6[nH]ncc56)c(C5CC5)cc34)CC2)C1', '> 6.52'),
  ('C=CC(=O)N1CCC2(CC1)CN(c1nc(N3CC(N4CCC5(CC5)C4)C3)nc3c(OCC(F)(F)F)c(-c4c(C)ccc5[nH]ncc45)c(C4CC4)cc13)C2', '> 6.52'),
  ('C=CC(=O)N1CC2(CCN(c3nc(N4CC(N5CC6(CSC6)C5)C4)nc4c(OCC(F)(F)F)c(-c5c(C)ccc6[nH]ncc56)c(C5CC5)cc34)CC2)C1', '> 6.52');
